measuredParameter: fraction unbound, rat plasma

1 = CC(C)(C)OC(=O)N1CCCC1C(=O)N1CCC(C(=O)N[C@@H](Cc2c[nH]c3ccccc23)C(=O)O)CC1 (some centres not stated)
2 = C[C@@H]1c2nnn(-c3ncc(F)cn3)c2CCN1C(=O)c1cccc(C(F)(F)F)c1Cl
3 = CCN(C/C=C\c1ccc(C2CCCCC2)c(Cl)c1)C1CCCCC1
4 = Cc1cc(Nc2cnccn2)cc(C2CCCN(CC(=O)N3CCCC3)C2)n1 (configuration not stated)
5 = CC(C)[C@@](C)(O)[C@@H]1CN(c2nc(-c3n[nH]c4ncccc34)c(F)cc2Cl)CCN1
Task: Ranking by fraction unbound, rat plasma (descending) is requested for the entries above. Give me the labels in the order the question wants.
Output: 1, 4, 2, 5, 3
(1: 0.696, 4: 0.429, 2: 0.174, 5: 0.0419, 3: 0.00541)

I = CCn1c(-c2nonc2N)nc2cnc(Oc3cccc(NC(=O)c4ccc(OCCN5CCOCC5)cc4)c3)cc21
II = COc1cc(F)ccc1-c1ncnc(Nc2cccc(C[S@@](C)(=N)=O)c2)n1
III = Cn1cc(-c2cn3nccc3c(-c3cnn([C@]4(CC#N)C[C@@H](C#N)C4)c3)n2)cn1
IV = CC1(CNC(=O)c2cncc(C3CCNCC3)n2)CCCO1 (configuration not stated)
V = C=CC(=O)Nc1cccc(Oc2nc(Nc3ccc(N4CCN(C)CC4)c(F)c3)nc3[nH]ccc23)c1
Task: List by increasing fraction unbound, rat plasma. Answer by writing out the labels in the requested order.
Output: I, V, III, II, IV
(I: 0.00473, V: 0.00726, III: 0.231, II: 0.375, IV: 0.912)

I = CCS(=O)(=O)N1CC(CC#N)(n2cc(-c3ncnc4[nH]ccc34)cn2)C1
II = CN1[C@@H]2CC[C@H]1C[C@H](OC(c1ccccc1)c1ccccc1)C2
III = COc1cc2nc(-c3cc(F)ccc3O)nc(N[C@@H]3CNC[C@H]3C(C)(C)O)c2cc1OC.Cl
IV = O=C(c1ccc(Oc2ccccc2)cc1Cl)c1c[nH]c2ncnc(N[C@@H]3CC[C@@H](CO)OC3)c12
V = CN1C(N)=N[C@](C)(c2cc(NC(=O)c3ccc(F)cn3)ccc2F)CS1(=O)=O
Task: Order the entries by their reported fraction unbound, rat plasma, beginning at the minimum. Give the labels in the order specified.
Output: III, IV, II, V, I
(III: 0.0015, IV: 0.00506, II: 0.152, V: 0.31, I: 1)
